SUBJECT_OF_TEST: PRMT5 (Homo sapiens)
Construct: purchased Viva (custom protein)
Sequence (O14744 whole entry): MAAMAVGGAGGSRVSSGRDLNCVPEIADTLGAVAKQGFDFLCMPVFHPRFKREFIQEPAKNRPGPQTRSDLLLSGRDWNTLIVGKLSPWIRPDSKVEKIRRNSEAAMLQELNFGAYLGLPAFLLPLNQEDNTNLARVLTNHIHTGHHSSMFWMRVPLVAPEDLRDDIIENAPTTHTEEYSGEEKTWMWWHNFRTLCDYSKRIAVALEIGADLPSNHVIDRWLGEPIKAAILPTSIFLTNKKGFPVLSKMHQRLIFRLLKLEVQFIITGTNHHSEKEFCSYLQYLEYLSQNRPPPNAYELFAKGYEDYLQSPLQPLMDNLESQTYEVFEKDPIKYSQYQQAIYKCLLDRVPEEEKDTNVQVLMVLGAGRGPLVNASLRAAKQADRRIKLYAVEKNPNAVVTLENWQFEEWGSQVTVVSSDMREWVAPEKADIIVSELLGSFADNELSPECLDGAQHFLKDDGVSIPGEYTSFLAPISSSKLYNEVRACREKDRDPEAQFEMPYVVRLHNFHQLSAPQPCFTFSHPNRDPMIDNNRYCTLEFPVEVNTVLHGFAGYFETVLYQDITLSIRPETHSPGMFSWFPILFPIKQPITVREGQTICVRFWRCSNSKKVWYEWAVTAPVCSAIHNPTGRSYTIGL
Sequence (Q9BQA1 whole entry partner): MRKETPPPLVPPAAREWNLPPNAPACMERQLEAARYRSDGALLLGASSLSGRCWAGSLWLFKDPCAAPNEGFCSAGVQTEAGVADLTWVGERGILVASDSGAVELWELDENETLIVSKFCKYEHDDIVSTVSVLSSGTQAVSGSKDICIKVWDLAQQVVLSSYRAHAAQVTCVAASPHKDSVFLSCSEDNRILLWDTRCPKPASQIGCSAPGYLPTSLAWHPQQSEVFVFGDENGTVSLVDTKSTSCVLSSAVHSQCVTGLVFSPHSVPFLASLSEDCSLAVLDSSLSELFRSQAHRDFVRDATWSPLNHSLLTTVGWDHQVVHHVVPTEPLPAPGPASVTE
METHOD_SUMMARY: PRMT5 biochemical IC50 assay with MTA as cofactor
APPLIED_CONDITIONS: PRMT5, MTA as cofactor; read-out: MTA IC50

MOLECULE | SUBJECT_OF_TEST | IC50
C[C@@H]1CC[C@@H](c2ccc(N)cn2)N(C(=O)C(=O)Nc2cncc(C(N)=O)c2)C1 (single isomer, unassigned) [Compound 607] | PRMT5 (Homo sapiens) | 50 to 500 nM
COc1ccccc1[C@@H]1CC[C@@H](C)CN1C(=O)C(=O)Nc1cncc(C(N)=O)c1 (racemic) [Compound 558] | PRMT5 (Homo sapiens) | 50 to 500 nM
C[C@@H]1CC[C@@H](c2ccc3cn(C)nc3c2)N(C(=O)C(=O)Nc2cnc(N)c(C3CC3)c2)C1 (single isomer, unassigned) [Compound 1403] | PRMT5 (Homo sapiens) | < 50 nM
Cc1cc(NC(=O)C(=O)N2C[C@@H](C)CC[C@@H]2c2ccc(NS(C)(=O)=O)nc2)cnc1N (single isomer, unassigned) [Compound 998] | PRMT5 (Homo sapiens) | > 500 nM
Cc1cncc(NC(=O)C(=O)N2C[C@H](C)CCC2c2cccc(F)c2)c1 (single isomer, unassigned) [Compound 93] | PRMT5 (Homo sapiens) | 50 to 500 nM
CC(=O)N1CCC(c2nc3cc([C@H]4CC[C@H](C)CN4C(=O)C(=O)Nc4cnc(N)c(C)c4)ccc3s2)CC1 [Compound 1093] | PRMT5 (Homo sapiens) | < 50 nM
